assay: Metabolic stability in rat liver microsomes after 180 mins in presence of NADPH by LC-MS analysis; type: ADME, microsome; conditions: read-out: Stability
quantity.name: remaining at 3 h (%)

# example entries with known answers
compound	measurement.unit	data.value
O=C(NCC(O)CO)c1ccc2c(c1)C(=O)c1ccc(Nc3cc(NC(=O)c4cccs4)c(F)cc3F)cc1OC2 (stereo not drawn)	%	48.7
O=C(NCC(O)CO)c1ccc2c(c1)C(=O)c1ccc(Nc3cc(NC(=O)c4cccs4)c(F)cc3F)cc1CC2 (stereo not drawn)	%	76.6
CNC(=O)c1ccc2c(c1)C(=O)c1ccc(Nc3cccc(C(=O)NC4CC4)c3F)cc1CC2	%	61.6
O=C(NCCO)c1ccc2c(c1)C(=O)c1ccc(Nc3cc(NC(=O)c4cccs4)c(F)cc3F)cc1CC2	%	66.9
O=C(NCCN1CCOCC1)c1ccc2c(c1)C(=O)c1ccc(Nc3ccc(F)c(NC(=O)c4ccccc4)c3)cc1OC2	%	14.8
O=C(NCC(O)CO)c1ccc2c(c1)C(=O)c1ccc(Nc3ccc(F)c(NC(=O)C4CC4)c3)cc1CC2 (stereo not drawn)	%	95.2

A: CNC(=O)c1ccc2c(c1)C(=O)c1ccc(Nc3ccc(F)c(NC(=O)C4CC4)c3)cc1CC2
B: O=C(NCCN1CCOCC1)c1ccc2c(c1)C(=O)c1ccc(Nc3ccc(F)c(NC(=O)c4ccccc4)c3)cc1CC2 [FS-694]
Query :: Which record would sort first by descending remaining at 3 h, A or B ? In your reply, give the label of the chosen option.
Result :: A
(A: 79.5%, B: 40.6%)

* * *

assay: Metabolic stability in rat liver microsomes after 180 mins in presence of NADPH by LC-MS analysis; format: ADME, microsome; conditions: read-out: Stability
quantity.name: remaining at 3 h (%)

molecule	quantity.name	data.value
O=C(NCCN1CCOCC1)c1ccc2c(c1)C(=O)c1ccc(Nc3ccc(F)c(NC(=O)c4cccs4)c3)cc1CC2	remaining at 3 h	57.1
CNC(=O)c1ccc2c(c1)C(=O)c1ccc(Nc3ccc(F)c(NC(=O)c4ccccc4)c3)cc1CC2	remaining at 3 h	65.6
O=C(NCCN1CCOCC1)c1ccc2c(c1)C(=O)c1ccc(Nc3cc(NC(=O)c4cccs4)c(F)cc3F)cc1CC2	remaining at 3 h	66.7
